Biological target: TRAILR2 receptor on the surface of human tumor cells (human, UniProt O14763 56-440)
Assay: cell-based or functional assay
readoutLabel: IC50, cytotoxic effect on SMMC-7721 cells (CellTiter-Glo, 72 h) (µg/mL)

| binder | quantityUnit | quantitativeReadout |
| --- | --- | --- |
| Zapadcine-1a (antibody, V domains shown, MMAD coupled through linker Py-Vc-PAB by thiol (disulfide) bridge coupling, cleavable; positions not given) VH: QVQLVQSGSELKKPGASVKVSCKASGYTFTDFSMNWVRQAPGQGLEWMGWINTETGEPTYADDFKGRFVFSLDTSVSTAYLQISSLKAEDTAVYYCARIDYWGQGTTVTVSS VL: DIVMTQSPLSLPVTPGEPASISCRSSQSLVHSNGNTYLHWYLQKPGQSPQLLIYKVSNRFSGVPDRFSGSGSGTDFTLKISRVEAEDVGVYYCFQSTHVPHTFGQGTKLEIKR | µg/mL | 0.012 |
| Zapadcine-1d (antibody, V domains shown, MMAF coupled through linker Mc-Vc-PAB by thiol conventional coupling, cleavable; positions not given) VH: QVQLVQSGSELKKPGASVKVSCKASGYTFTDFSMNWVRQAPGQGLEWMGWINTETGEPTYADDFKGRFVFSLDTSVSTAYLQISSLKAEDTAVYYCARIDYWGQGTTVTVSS VL: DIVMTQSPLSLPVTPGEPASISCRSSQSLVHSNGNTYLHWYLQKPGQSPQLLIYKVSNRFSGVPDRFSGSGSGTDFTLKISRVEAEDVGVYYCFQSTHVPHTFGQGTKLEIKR | µg/mL | 0.583 |
| Zapadcine-1b (antibody, V domains shown, MMAD coupled through linker Mc-Vc-PAB by thiol conventional coupling, cleavable; positions not given) VH: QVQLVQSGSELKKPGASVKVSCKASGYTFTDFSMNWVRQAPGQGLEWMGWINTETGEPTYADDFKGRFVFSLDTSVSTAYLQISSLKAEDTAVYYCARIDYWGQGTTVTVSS VL: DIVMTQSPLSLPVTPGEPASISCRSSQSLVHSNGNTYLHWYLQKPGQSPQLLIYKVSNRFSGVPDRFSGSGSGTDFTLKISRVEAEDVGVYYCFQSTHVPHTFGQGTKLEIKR | µg/mL | 0.178 |
| Zaptuzumab (antibody, V domains shown) VH: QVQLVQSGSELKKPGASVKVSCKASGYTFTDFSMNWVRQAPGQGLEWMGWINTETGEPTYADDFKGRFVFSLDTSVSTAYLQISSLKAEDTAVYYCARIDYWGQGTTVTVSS VL: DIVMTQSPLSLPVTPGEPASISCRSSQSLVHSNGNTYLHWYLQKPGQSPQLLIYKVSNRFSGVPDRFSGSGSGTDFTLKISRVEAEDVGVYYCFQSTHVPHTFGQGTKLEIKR | µg/mL | 6.12 |
| Zapadcine-1c (antibody, V domains shown, MMAD coupled through linker Py-MAA by thiol bridge coupling, non-cleavable; positions not given) VH: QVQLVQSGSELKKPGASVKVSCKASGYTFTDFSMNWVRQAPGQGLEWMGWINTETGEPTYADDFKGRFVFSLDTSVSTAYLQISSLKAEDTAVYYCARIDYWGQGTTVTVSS VL: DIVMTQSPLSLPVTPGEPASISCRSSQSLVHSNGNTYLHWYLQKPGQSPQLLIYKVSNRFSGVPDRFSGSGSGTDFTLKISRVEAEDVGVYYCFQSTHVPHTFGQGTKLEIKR | µg/mL | 0.0197 |
